target-of-assay: GTPase KRas (Homo sapiens, UniProt P01116)
Sequence (P01116 whole entry): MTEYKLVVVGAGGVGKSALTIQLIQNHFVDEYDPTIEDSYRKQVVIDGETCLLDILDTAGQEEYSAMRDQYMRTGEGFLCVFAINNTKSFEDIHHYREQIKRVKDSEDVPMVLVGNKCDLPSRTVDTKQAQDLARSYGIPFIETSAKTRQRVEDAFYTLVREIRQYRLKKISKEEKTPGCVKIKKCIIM
protocol-details: Inhibition of KRas (unknown origin)
readout-kind: pIC50
Expect pIC50 as a plain number equal to -log10 of the molar concentration.

Solved entries:
- molecule: "CC[C@H](C)[C@@H]1NC(=O)[C@@H]2CCCN2C(=O)[C@H](Cc2ccc(O)cc2)NC(=O)[C@@H](NC(=O)[C@H](CC(=O)O)NC(=O)[C@H](Cc2ccc(O)cc2)NC(=O)[C@H](Cc2ccccc2)NC(=O)[C@H](Cc2c[nH]cn2)NC(=O)[C@@H](N)Cc2ccccc2)CC#CC[C@@H](C(=O)N[C@@H](CC(C)C)C(=O)N[C@H](C(=O)N2CCC[C@H]2C(=O)N2CCC[C@H]2C(N)=O)[C@@H](C)CC)NC1=O"
  recorded-number: 7.64
- molecule: "CC(C)C[C@H](NC(=O)C1CCCOCc2cnnn2CCC(=O)NCC(=O)N2CCC[C@H]2C(=O)N[C@@H](Cc2cccc3ccccc23)C(=O)N1)C(N)=O (some centres undefined)"
  recorded-number: 5.15
- molecule: "CC(C)C[C@H](NC(=O)C1CCCOCc2cnnn2CCC(=O)NCC(=O)N2CCCC[C@H]2C(=O)N[C@@H](Cc2cccc3ccccc23)C(=O)N1)C(N)=O (some centres undefined)"
  recorded-number: 5.11

# ---- query molecule ----
Task: May I ask what pIC50 has been recorded for CC[C@H](C)[C@@H]1NC(=O)[C@@H]2CCCN2C(=O)CNC(=O)CCn2nncc2COCCCC(C(=O)N[C@@H](CC(C)C)C(N)=O)NC1=O (some centres undefined) ?
Result: 4.00

====

target-of-assay: SOS1-KRAS (Homo sapiens, UniProt P01116, G12D)
Sequence (P01116 whole entry G12D, looked up): as the sequence (P01116 whole entry) above, with G12D counted along it
protocol-details: Inhibition of KRAS G12D mutant/SOS1 (unknown origin) interaction by TR-FRET assay
Where a SMILES comes first, the peptide text is derived from it. Bridges are numbered along the chain shown (N, C = ends). [ ]: non-standard residue; d: D form. hArg = N=C(N)NCCCC[C@H](N)C(=O)O; S5 = C=CCCC[C@](C)(N)C(=O)O
readout-kind: IC50 (µM)
Answer with a number only, understood to be in µM.

Task: Identify the measured IC50 of CC[C@H](C)[C@H](NC(=O)[C@H](Cc1c[nH]c2ccccc12)NC(C)=O)C(=O)NCC(=O)N[C@@H](CCCNC(=N)N)C(=O)N[C@@H](CC(C)C)C(=O)N[C@@H](CC(C)C)C(=O)N[C@H](C(=O)N[C@@]1(C)CCC/C=C\CCC[C@@](C)(C(=O)N[C@@H](CCCNC(=N)N)C(=O)N[C@@H](CC(N)=O)C(=O)NCC(=O)N[C@@H](CC(N)=O)C(N)=O)NC(=O)[C@H](CC(C)C)NC(=O)[C@H](CCCCNC(=N)N)NC(=O)[C@H](CCCNC(=N)N)NC1=O)[C@@H](C)O (Ac-WIGRLLT[S5]R[hArg]L[S5]RNGN-NH2; staple (Z) 8-12) for SOS1-KRAS (Homo sapiens, UniProt P01116, G12D).
Result: 0.016

====

target-of-assay: SOS1-KRAS (Homo sapiens, UniProt P01116, G12D)
protocol-details: Inhibition of KRAS G12D mutant/SOS1 (unknown origin) interaction by TR-FRET assay
Where a SMILES comes first, the peptide text is derived from it. [ ]: non-standard residue; d: D form. hPhe(3-Cl-4-CF3) = N[C@@H](CCc1ccc(C(F)(F)F)c(Cl)c1)C(=O)O; hPhe(4-CF3) = N[C@@H](CCc1ccc(C(F)(F)F)cc1)C(=O)O; NMeCha = CN[C@@H](CC1CCCCC1)C(=O)O; NMeL = CN[C@@H](CC(C)C)C(=O)O; NMeV = CN[C@H](C(=O)O)C(C)C; Ac5c = NC1(C(=O)O)CCCC1; β3hA = C[C@H](N)CC(=O)O; Sar = CNCC(=O)O
readout-kind: IC50 (nM)
Your answer should be a plain number; it is taken to be in nM.

Please review the entries below; each comes with its answer.
- compound: "CC[C@H](C)[C@@H]1NC(=O)[C@H](CC(C)C)N(C)C(=O)C[C@H](C)NC(=O)[C@H](C(C)C)N(C)C(=O)C2(CCCC2)NC(=O)[C@@H]2CCCN2C(=O)[C@H](CCc2ccc(C(F)(F)F)c(Cl)c2)NC(=O)CN(C)C(=O)[C@H](CC2CCCCC2)N(C)C(=O)CN(C)C1=O (cyclo([Ac5c][NMeV][β3hA][NMeL]I[Sar][NMeCha][Sar][hPhe(3-Cl-4-CF3)]P))"
  target-of-assay: "SOS1-KRAS (Homo sapiens, UniProt P01116, G12D)"
  display-unit: "nM"
  IC50: 11
- compound: "C[C@@H](NC(=O)[C@H](Cc1ccccc1)NC(=O)[C@@H](CCCNC(=N)N)NC(=O)[C@H](CCCN)NC(=O)[C@@H]1CNC(=O)c2cc3cc(c2)C(=O)N[C@H](Cc2ccc4ccccc4c2)C(=O)N[C@@H](CO)C(=O)N[C@@H](CC(N)=O)C(=O)N[C@H](Cc2ccc4ccccc4c2)C(=O)N[C@@H](c2ccccc2)C(=O)N[C@@H](CCCCNC3=O)C(=O)N[C@H](Cc2ccccc2)C(=O)N[C@@H](CCC(N)=O)C(=O)N[C@H](CCCNC(=N)N)C(=O)CN[C@@H](CCCNC(=N)N)C(=O)N1)C(N)=O"
  target-of-assay: "SOS1-KRAS (Homo sapiens, UniProt P01116, G12D)"
  display-unit: "nM"
  IC50: 120

With those in mind, consider the next compound.
Task: Data request, read-out IC50, for CC[C@H](C)[C@@H]1NC(=O)[C@H](CC(C)C)N(C)C(=O)C[C@H](C)NC(=O)[C@H](CC(C)C)N(C)C(=O)C2(CCCC2)NC(=O)[C@@H]2CCCN2C(=O)[C@H](CCc2ccc(C(F)(F)F)cc2)NC(=O)CN(C)C(=O)[C@H](CC2CCCCC2)N(C)C(=O)CN(C)C(=O)CN(C)C1=O (cyclo([Ac5c][NMeL][β3hA][NMeL]I[Sar][Sar][NMeCha][Sar][hPhe(4-CF3)]P))
Result: 110

====

target-of-assay: SOS1-KRAS (Homo sapiens, UniProt P01116, G12D)
protocol-details: Inhibition of KRAS G12D mutant/SOS1 (unknown origin) interaction by TR-FRET assay
Where a SMILES comes first, the peptide text is derived from it. Bridges are numbered along the chain shown (N, C = ends). [ ]: non-standard residue; d: D form. The star is where a group is joined. hPhe(4-CF3) = N[C@@H](CCc1ccc(C(F)(F)F)cc1)C(=O)O; NMePhe(4-Cl) = CN[C@@H](Cc1ccc(Cl)cc1)C(=O)O; Phe(3-Cl) = N[C@@H](Cc1cccc(Cl)c1)C(=O)O; NMeF = CN[C@@H](Cc1ccccc1)C(=O)O; NMeL = CN[C@@H](CC(C)C)C(=O)O; NMeV = CN[C@H](C(=O)O)C(C)C; NMeA = CN[C@@H](C)C(=O)O; Pyrrolidide = C1CCN(*)C1; Sar = CNCC(=O)O
Measured IC50, listed per entry.
Please give a number only; it is taken to be in nM.

The examples below pair each entry with its known result.
- compound: "CC[C@H](C)[C@@H]1NC(=O)[C@H](C)N(C)C(=O)C[C@@H](C(=O)N2CCCC2)NC(=O)[C@H](CC(C)C)N(C)C(=O)[C@H](Cc2ccccc2)N(C)C(=O)[C@H](CC(C)C)NC(=O)[C@H](CCc2ccc(C(F)(F)F)cc2)NC(=O)CN(C)C(=O)[C@H](Cc2ccc(Cl)cc2)N(C)C(=O)CN(C)C1=O ([NMeA]I[Sar][NMePhe(4-Cl)][Sar][hPhe(4-CF3)]L[NMeF][NMeL]D-Pyrrolidide; lactam N-10)"
  target-of-assay: "SOS1-KRAS (Homo sapiens, UniProt P01116, G12D)"
  display-unit: "nM"
  IC50: 18
- compound: "CC[C@H](C)[C@H](NC(=O)CN1C/C=C\\CCC(=O)N[C@@H](Cc2ccccc2)C(=O)N[C@@H](CCC(=O)O)C1=O)C(=O)N[C@@H](Cc1ccc(O)cc1)C(=O)N[C@@H](CCCNC(=N)N)C(=O)N[C@@H](CC(C)C)C(=O)N[C@@H](CCC(=O)O)C(=O)N[C@@H](CC(C)C)C(=O)N[C@@H](CC(C)C)C(=O)N[C@@H](CCCCN)C(=O)N[C@@H](C)C(=O)N[C@@H](CCC(=O)O)C(=O)N[C@@H](CCC(=O)O)C(=O)N[C@@H](C)C(=O)N[C@@H](CC(N)=O)C(N)=O"
  target-of-assay: "SOS1-KRAS (Homo sapiens, UniProt P01116, G12D)"
  display-unit: "nM"
  IC50: 640

From here, focus on the item given below.
Task: Please report the recorded IC50 for CC[C@H](C)[C@@H]1NC(=O)[C@H](C)N(C)C(=O)C[C@@H](C(=O)N2CCCC2)NC(=O)[C@H](C(C)C)N(C)C(=O)[C@H](Cc2ccccc2)N(C)C(=O)[C@H](Cc2c[nH]c3ccccc23)NC(=O)[C@H](Cc2cccc(Cl)c2)NC(=O)CN(C)C(=O)[C@H](Cc2ccc(Cl)cc2)N(C)C(=O)CN(C)C(=O)CN(C)C1=O ([NMeA]I[Sar][Sar][NMePhe(4-Cl)][Sar][Phe(3-Cl)]W[NMeF][NMeV]D-Pyrrolidide; lactam N-11) .
Result: 54

Data provenance: ChEMBL document CHEMBL6127081
